// provenance: PubChem BioAssay AID743279

Item-by-item account of activity change
Test: qHTS for Inhibitors of Inflammasome Signaling: IL-1-beta AlphaLISA Primary Screen; further: on the % scale 0 is the no-effect control and ±100 the full control effect
Details: THP-1 LPS/ATP IL-1B secretion, 16 h; at 57.5 µM, active compounds read low
In all, about 360,000 compounds went through this assay and about 17,000 (4.7%) were called active. Another 5% or so got no clear call; they are omitted. What follows is part of a selection rich in actives, with near analogues and random picks from the rest.

compound: COc1ccc(C(C(=O)NCc2ccccc2)n2c(=O)c(-c3ccccc3)nc3ccccc32)cc1 (stereo not drawn)
activity change / %: -6.01
--
compound: CC(C)C(NC(=O)OCc1ccccc1)C(=O)OCC(=O)N1C(C)CCCC1C (stereo not drawn)
activity change / %: -2.86
--
compound: CCC(c1nnnn1Cc1ccccc1)N(Cc1cc2cc(OC)ccc2[nH]c1=O)CC1CCCO1 (stereo not drawn)
activity change / %: 0
--
compound: Cc1nc2ccccc2c(-c2ccccc2)c1C(=O)c1ccccc1
activity change / %: 29.5
--
compound: CC(C)C1N=C2c3ccccc3N=C(SCC(=O)c3ccc(O)c(O)c3)N2C1=O (stereo not drawn)
activity change / %: 41.9
--
compound: O=C1[C@@H](c2ccccc2)[C@@H](c2ccccc2)N1c1cccnc1
activity change / %: -68.8
--
compound: Cc1ccc(OCC(=O)Nc2ccc(N3CCN(C(=O)c4ccco4)CC3)cc2)c(C)c1
activity change / %: -61.6
--
compound: CCc1nc2c(OCCOc3ccccc3)cccn2c1N(C)C(=O)c1ccc(OC)cc1
activity change / %: -0.0267
--
compound: O=C1OCCOC2CCCc3oc(-c4ccccc4)c1c32 (stereo not drawn)
activity change / %: 10.6
--
compound: CCOc1ccc2[nH]c(=O)c(CN(Cc3nnnn3Cc3ccccc3)CC3CCCO3)cc2c1 (stereo not drawn)
activity change / %: -63.9
--
compound: Cc1cc(=O)n2[nH]c(-c3cccc(Cl)c3)cc2n1
activity change / %: 9.73
--
compound: CCOc1ccc2[nH]c(=O)c(CN(Cc3nnnn3CCc3ccccc3)CC3CCCO3)cc2c1 (stereo not drawn)
activity change / %: -29.1
--
compound: Cc1ccccc1C(=O)NCC(c1ccco1)N1CCc2ccccc21 (stereo not drawn)
activity change / %: -20.8

* * *

Test: qHTS for Inhibitors of Inflammasome Signaling: IL-1-beta AlphaLISA Primary Screen
Conditions: THP-1 LPS/ATP IL-1B secretion, 16 h; at 57.5 µM, active compounds read low
Out of some 360,000 compounds screened, about 17,000 (4.7%) were called active. Inconclusive results (about 5%) are left out. The sample holds actives, similar compounds and a random draw of the others, so the mix is not that of the screen.
Listed compounds paired with reported activity change

smiles-str: CCC(C)(C)c1ccc(OCC(=O)N(C)C)c(C(C)(C)CC)c1
activity change (%): -90.9
--
smiles-str: O=C(C1=C[C@H](c2ccc(C(F)(F)F)cc2)C[C@H](OCc2ccc(CO)cc2)O1)N1CCN(Cc2ccccc2)CC1
activity change (%): -80.4
--
smiles-str: O=C(CSc1ccc([N+](=O)[O-])cn1)Nc1ccc(N2CCOCC2)c(Cl)c1
activity change (%): -12.5

* * *

Measured activity change, listed per entry for reference.
Assay: qHTS for Inhibitors of Inflammasome Signaling: IL-1-beta AlphaLISA Primary Screen
Details: THP-1 LPS/ATP IL-1B secretion, 16 h; at 57.5 µM, active compounds read low
Hit rate of the full screen: of about 360,000 compounds, about 17,000 (4.7%) were called active. Another 5% or so got no clear call; they are omitted. Shown is part of a subset that was picked to be rich in actives.

molecule: Cc1ccc(F)c(S(=O)(=O)NC(=O)C2(C)CCN2C(=O)c2ccco2)c1 (stereo unspecified)
activity change / %: 24
//
molecule: NC(c1ccccc1)c1csc(NC(=O)Nc2cccc(C(F)(F)F)c2)n1 (stereo unspecified)
activity change / %: -106
//
molecule: CCOC(=O)C1(CCOC)CCN(Cc2ccc(C(=O)OC)cc2)CC1
activity change / %: 4.83
//
molecule: CC(C)C[C@H](NC(=O)Nc1cccc(C(F)(F)F)c1)C(=O)O
activity change / %: 34.5
//
molecule: CCN(CC)CCCN1C(=O)C(=O)/C(=C(/O)c2c(C)nc3ccccn23)C1c1ccc(C)o1 (stereo unspecified)
activity change / %: -3.42
//
molecule: COc1ccc(C(N)c2csc(NC(=O)Nc3cccc(C(F)(F)F)c3)n2)cc1 (stereo unspecified)
activity change / %: -81.4
